Biological target: T1, interleukin-23 receptor (IL-23R), Q5VWK5
T1 chain: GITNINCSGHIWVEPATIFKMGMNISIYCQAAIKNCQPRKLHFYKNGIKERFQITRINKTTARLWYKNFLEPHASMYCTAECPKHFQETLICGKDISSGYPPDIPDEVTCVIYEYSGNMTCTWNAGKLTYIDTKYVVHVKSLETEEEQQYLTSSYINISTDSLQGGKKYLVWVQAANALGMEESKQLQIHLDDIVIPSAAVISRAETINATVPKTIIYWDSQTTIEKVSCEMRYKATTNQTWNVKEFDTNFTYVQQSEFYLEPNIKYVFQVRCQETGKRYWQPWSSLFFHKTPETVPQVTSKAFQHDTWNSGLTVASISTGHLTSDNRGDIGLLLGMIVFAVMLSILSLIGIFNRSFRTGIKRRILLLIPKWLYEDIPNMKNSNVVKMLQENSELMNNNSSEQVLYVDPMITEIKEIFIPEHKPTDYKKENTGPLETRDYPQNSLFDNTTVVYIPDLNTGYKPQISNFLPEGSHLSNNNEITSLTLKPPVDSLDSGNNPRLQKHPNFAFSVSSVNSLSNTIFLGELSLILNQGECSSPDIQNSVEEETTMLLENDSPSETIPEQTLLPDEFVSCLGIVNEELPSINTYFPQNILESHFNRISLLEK
Test: cell-based or functional assay
Positions of bridges follow the written chain, without caps; N, C: chain ends. Non-standard residues stand in square brackets, D forms with d. No end group written: not given here. Trp(7-Br) = N[C@@H](Cc1c[nH]c2c(Br)cccc12)C(=O)O; 2Nal(6-OH) = N[C@@H](Cc1ccc2cc(O)ccc2c1)C(=O)O; Trp(7-Me) = Cc1cccc2c(C[C@H](N)C(=O)O)c[nH]c12; 3Pal(5-Me) = Cc1cncc(C[C@H](N)C(=O)O)c1; AEF = NCCOc1ccc(C[C@H](N)C(=O)O)cc1; 3Pal = N[C@@H](Cc1cccnc1)C(=O)O; NMeK = CN[C@@H](CCCCN)C(=O)O; Pen = CC(C)(S)[C@H](N)C(=O)O; αMeK = C[C@](N)(CCCCN)C(=O)O; lipid = not defined here; Thp = NC1(C(=O)O)CCOCC1; Sar = CNCC(=O)O

>  <binder>
[Pen]LT[Trp(7-Me)]K(lipid)[Pen]F[2Nal(6-OH)][αMeK]LN[3Pal][Sar] (disulfide 1-6 (inferred); ends not checked; also: Lys5 lipidated, lipid not given here) [SEQ ID NO: 303]

>  <IL23R Reporter Assay IC50>
< 0.01 µM

$$$$
>  <binder>
[(R)‑3‑carboxy‑2‑(4-(((R)-5-carboxy-5-hydrazineylpentyl)amino)-4-oxobutanamido)‑N,N,N‑trimethylpropan‑1‑aminium][Pen]NT[Trp(7-Me)]K(Ac)[Pen][2‑amino‑3‑(4-(2-aminoethoxy)phenyl)propanoic acid][2‑amino‑3‑(6-hydroxynaphthalen-2-yl)propanoic acid][Thp]EN[3Pal][NMeK](lipid) (disulfide 2-7 (inferred); not fully specified; ends not checked) [SEQ ID NO: 168]

>  <IL23R Reporter Assay IC50>
> 0.1 µM

$$$$
>  <binder>
R[Pen]NT[Trp(7-Br)]K(Ac)[Pen][AEF][2Nal(6-OH)][Thp]EN[3Pal][Sar] (not fully specified (bridges); ends and bridges not checked) [SEQ ID NO: 312]

>  <IL23R Reporter Assay IC50>
< 0.01 µM

$$$$
>  <binder>
R[Pen]NT[Trp(7-Me)]K(Ac)[Pen][AEF][2Nal(6-OH)][Thp]EN[3Pal(5-Me)][Sar] (disulfide 2-7 (inferred); ends not checked) [SEQ ID NO: 52]

>  <IL23R Reporter Assay IC50>
< 0.01 µM

$$$$
